Source: patent US20240034792A1

Quick list: Maximum inhibition rate (%) per entry.
Biological target: T1, Human PD-1 expressed on CHO-K1 cells (CHO-K1/hPD-1) (human, UniProt Q15116 25-288)
T1 construct: whole, on cells; also called CHO-K1 cells overexpressing human PD-1
T1 sequence (Q15116 25-288): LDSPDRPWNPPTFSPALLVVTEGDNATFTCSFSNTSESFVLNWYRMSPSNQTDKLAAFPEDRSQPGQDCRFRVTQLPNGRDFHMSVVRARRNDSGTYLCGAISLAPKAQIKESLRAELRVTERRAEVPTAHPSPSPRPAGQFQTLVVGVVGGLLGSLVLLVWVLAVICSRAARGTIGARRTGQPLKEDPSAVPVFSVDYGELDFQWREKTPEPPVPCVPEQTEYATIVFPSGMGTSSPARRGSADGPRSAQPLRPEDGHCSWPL
Assay: FACS blocking of biotin-labeled human PD-L1 binding to CHO-K1-hPD-1 cells
Kindly provide the numeric value in % only, without the unit symbol.

Sample answers from the record:
| Binder | Measured Endpoint | Measured Result |
| --- | --- | --- |
| PR002473 (antibody, human IgG1, V domains shown, Heavy-chain-only antibody (HCAb), human IgG1 Fc; two heavy chains, no light chain; also called R4004P541H11) VH: EVQLVETGGGLIQPGGSLRLSCAASGFNVSSHYMSWVRQAPGKGLEWVSIIHSGGSTYYADSVKGRFTISRDNSKNRLYLQMNSLIAEDTAVYYCARAIAVAEKNGYNYPFNYWGQGTLVTVSS | Maximum inhibition rate (%) | 62.2 |
| PR002478 (antibody, human IgG1, V domains shown, Heavy-chain-only antibody (HCAb), human IgG1 Fc; two heavy chains, no light chain; also called R4004P548A8) VH: EVQLVETGGGLIQPGGSLRLSCAASGFNVSSNYMSWVRQAPGKGLEWVSIIHSGGSTYYADSVKGRFTISRDNSKNRLYLQMNSLRAEDTAVYYCARAIAVAEKNGYNYPFNYWGQGTLVTVSS | Maximum inhibition rate (%) | 97 |

Would you kindly look at the next entry?
Quick one: Maximum inhibition rate (%) of PR000673 (antibody, human IgG4 S228P, kappa, V domains shown, Fully human recombinant H2L2 antibody, human IgG4, kappa light chain; also called 4004_10H9A12) VH: QVQLVESGGGVVQPGRSLRLSCAASGFIFSNYGMHWVRQAPGKGLEWVAVIWYDGSKKYYGDSVKGRFTISRDNSKNTLYLQMNSLRDEDTAVYFCARNDDYWGQGTLVTVSS VL: EIVLTQSPATLSFSPGERATLSCRASQSVSSDLAWYQQKPGQAPSLLIYDASNRATGIPARFSGSGSGTDFTLTISSLEPEDFAVYYCHQRNNWPLTFGGGTKVEIKR ? 45.6
